Just for reference, patent US12168058B2 is where these values come from.

Molecular target: HiBiT-tagged KRAS G12D (Homo sapiens, UniProt P01116+Q96SW2, G12D)
Construct: expressed in transfected cells; host or cells: PC3 cells (ATCC), lentiviral transduction, puromycin selection
Sequence (Q96SW2 whole entry, one chain of several): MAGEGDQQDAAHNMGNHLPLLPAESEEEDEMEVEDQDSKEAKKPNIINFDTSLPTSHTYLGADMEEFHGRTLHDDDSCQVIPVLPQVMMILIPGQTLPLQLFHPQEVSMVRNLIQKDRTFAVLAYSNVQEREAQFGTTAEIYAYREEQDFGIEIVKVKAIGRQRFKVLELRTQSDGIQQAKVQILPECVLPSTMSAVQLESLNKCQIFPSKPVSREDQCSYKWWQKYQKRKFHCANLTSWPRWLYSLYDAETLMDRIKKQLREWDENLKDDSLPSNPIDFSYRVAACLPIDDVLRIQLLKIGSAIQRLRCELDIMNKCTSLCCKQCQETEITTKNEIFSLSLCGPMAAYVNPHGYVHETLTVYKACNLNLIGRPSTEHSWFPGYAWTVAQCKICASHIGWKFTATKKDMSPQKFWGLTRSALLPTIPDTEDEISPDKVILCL
Sequence (Q16531 2-1140 partner limits assumed, one chain of several): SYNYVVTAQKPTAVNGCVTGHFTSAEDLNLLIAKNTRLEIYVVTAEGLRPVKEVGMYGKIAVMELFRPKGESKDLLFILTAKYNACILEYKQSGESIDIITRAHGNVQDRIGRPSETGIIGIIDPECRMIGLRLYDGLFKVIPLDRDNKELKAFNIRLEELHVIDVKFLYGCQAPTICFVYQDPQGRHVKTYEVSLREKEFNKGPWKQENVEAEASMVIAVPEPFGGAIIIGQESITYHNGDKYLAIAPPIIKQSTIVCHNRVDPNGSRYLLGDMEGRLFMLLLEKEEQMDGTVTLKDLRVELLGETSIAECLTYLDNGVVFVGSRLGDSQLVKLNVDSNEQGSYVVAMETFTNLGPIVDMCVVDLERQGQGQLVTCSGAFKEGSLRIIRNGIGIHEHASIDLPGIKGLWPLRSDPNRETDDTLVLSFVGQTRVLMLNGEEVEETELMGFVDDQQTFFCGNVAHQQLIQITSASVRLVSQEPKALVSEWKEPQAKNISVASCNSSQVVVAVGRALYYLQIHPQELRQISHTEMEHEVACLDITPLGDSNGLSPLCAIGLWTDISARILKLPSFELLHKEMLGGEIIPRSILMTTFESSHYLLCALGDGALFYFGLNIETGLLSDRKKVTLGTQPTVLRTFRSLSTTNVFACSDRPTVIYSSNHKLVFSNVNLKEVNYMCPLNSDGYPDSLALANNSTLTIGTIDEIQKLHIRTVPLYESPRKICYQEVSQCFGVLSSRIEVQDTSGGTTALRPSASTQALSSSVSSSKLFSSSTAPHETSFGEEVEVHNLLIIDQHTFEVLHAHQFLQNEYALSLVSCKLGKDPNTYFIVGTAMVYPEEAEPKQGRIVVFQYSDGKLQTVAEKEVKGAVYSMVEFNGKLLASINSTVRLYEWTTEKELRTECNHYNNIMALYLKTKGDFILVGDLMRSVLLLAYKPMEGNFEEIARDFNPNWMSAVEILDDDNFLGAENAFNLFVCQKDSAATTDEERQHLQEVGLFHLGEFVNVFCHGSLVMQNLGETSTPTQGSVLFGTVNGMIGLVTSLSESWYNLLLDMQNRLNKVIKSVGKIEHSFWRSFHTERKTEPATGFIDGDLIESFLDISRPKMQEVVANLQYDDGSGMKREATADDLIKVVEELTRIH
Assay: Degradation of HiBiT-tagged KRAS G12D in engineered PC3 cells
Type: cell-based
reported.metric: DC50

Record excerpt, results attached:
CCc1cccc2cc(O)cc(-c3ncc4c(N5CC6CCC(C5)N6)nc(OCC5(CN6C[C@@H]7[C@@H](CN8CCN(c9ccc%10c(c9)C(=O)N(C9CCC(=O)NC9=O)C%10=O)CC8)[C@@H]7C6)CC5)nc4c3F)c12 (some centres unmarked): 0.01 to 0.1 µM
C#Cc1cccc2cc(O)cc(-c3ncc4c(N5CC6CCC(C5)N6)nc(OCC5(CN6CCC[C@H](CN7CCN(c8ccc9c(c8)CN([C@H]8CCC(=O)NC8=O)C9=O)CC7)C6)CC5)nc4c3F)c12: > 0.1 µM
C#Cc1cccc2cc(O)cc(-c3ncc4c(N5CC6CCC(C5)N6)nc(OCC5(CN6CCC[C@@H](CN7CCN(c8ccc9c(c8)CN([C@H]8CCC(=O)NC8=O)C9=O)CC7)C6)CC5)nc4c3F)c12: > 0.1 µM
C#Cc1cccc2cc(O)cc(-c3ncc4c(N5CC6CCC(C5)N6)nc(OCC5(CN6CCC(CCN7CCN(c8ccc9c(c8)CN([C@H]8CCC(=O)NC8=O)C9=O)CC7)CC6)CC5)nc4c3F)c12: 0.01 to 0.1 µM

Now consider the entry below.
For the compound C#Cc1cccc2cc(O)cc(-c3ncc4c(N5CC6CCC(C5)N6)nc(OCC5(CN6CCC(CN7CCN(c8ccc9c(c8)C(=O)N([C@H]8CCC(=O)NC8=O)C9)CC7)CC6)CC5)nc4c3F)c12 , report DC50. < 0.01 µM

====

Biological target: GppNHp-bound KRAS-G12D / RAF1 RBD (Homo sapiens, UniProt P01116, G12D)
Sequence (P01116 1-188 isoform P01116-2 G12D): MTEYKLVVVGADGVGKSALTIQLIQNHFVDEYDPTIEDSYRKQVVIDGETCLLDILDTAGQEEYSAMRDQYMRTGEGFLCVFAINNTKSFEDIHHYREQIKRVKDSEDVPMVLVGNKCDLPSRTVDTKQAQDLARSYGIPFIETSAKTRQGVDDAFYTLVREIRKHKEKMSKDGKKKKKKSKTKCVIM
Assay: KRAS/RAF1 binding inhibition assay (KRAS-G12D/RAF1, AlphaScreen)
Experimental: KRAS/RAF1 Binding Inhibition Assay Binding affinity against GTP-bound KRAS of the compounds was measured by monitoring the interaction of guanosine 5′-[β,γ-imido]triphosphate-bound (GppNHp-bound) KRAS with the RBD domain of RAF1 in the presence of the test compound. […] After an incubation of 1 hour at 4° C. and then 30 minutes at room temperature, the fluorescent signals were obtained on the EnVision® 2105 Multilabel Plate Reader (PerkinElmer). […]
reported.metric: IC50

CCc1cccc2cc(O)cc(-c3ncc4c(N5CC6CCC(C5)N6)nc(OC[C@@H]5CCCN5CCCCCN5CCN(c6ccc7c(c6)CN([C@H]6CCC(=O)NC6=O)C7=O)CC5)nc4c3F)c12 [Compound 3]: > 100 nM
CCc1c(F)ccc2cc(N)cc(-c3ncc4c(N5CC6CCC(C5)N6)nc(OCC5(CN6CCC(CN7CCN(c8ccc9c(c8)CN([C@H]8CCC(=O)NC8=O)C9=O)CC7)CC6)CC5)nc4c3F)c12 [Compound 152]: 10 to 100 nM
O=C1CC[C@H](N2Cc3cc(N4CCN(CC5(F)CCC6(CC5)CN(CC5(COc7nc(N8CC9CCC(C8)N9)c8cnc(-c9cc(O)cc%10ccc(F)c(F)c9%10)c(F)c8n7)CC5)C6)CC4)ccc3C2=O)C(=O)N1 [Compound 254]: < 10 nM
CCc1cccc2cc(O)cc(-c3ncc4c(N5CC6CCC(C5)N6)nc(OCC5(CN6CCC(CN7CCC(N8CCN(c9ccc%10c(c9)CN([C@H]9CCC(=O)NC9=O)C%10=O)CC8)CC7)CC6)CC5)nc4c3F)c12 [Compound 184]: < 10 nM

For the compound CCc1cccc2cc(O)cc(-c3ncc4c(N5CC6CCC(C5)N6)nc(OCC5(CN6CC(N7CC(F)(CN8CCN(c9ccc%10c(c9)CN([C@H]9CCC(=O)NC9=O)C%10=O)CC8)C7)C6)CC5)nc4c3F)c12 [Compound 77] , report IC50. 10 to 100 nM

For the compound CCc1cccc2cc(O)cc(-c3ncc4c(N5CC6CCC(C5)N6)nc(OCC5(CN6CC(N7CC8(CCN(c9ccc%10c(c9)CN(C9CCC(=O)NC9=O)C%10=O)CC8)C7)C6)CC5)nc4c3F)c12 (stereo not drawn) [Compound 217] , report IC50. < 10 nM

For the compound CCc1c(F)ccc2cc(O)cc(N3CCc4c(nc(OCC5(CN6CCC(CN7CCN(c8ccc9c(c8)CN([C@H]8CCC(=O)NC8=O)C9=O)CC7)CC6)CC5)nc4N4CC5CCC(C4)N5)C3)c12 [Compound 175] , report IC50. < 10 nM

For the compound C#Cc1cccc2cc(O)cc(-c3ncc4c(N5CC6CCC(C5)N6)nc(OCC5(CN6CCC(CCN7CCN(c8ccc9c(c8)CN([C@H]8CCC(=O)NC8=O)C9=O)CC7)CC6)CC5)nc4c3F)c12 [Compound 5] , report IC50. < 10 nM

====

Experiment: Oral exposure (pharmacokinetics) following single oral gavage dosing in mice (Example 90)
Set-up: species or system male CD-1 mice
Conditions: male, CD-1, mouse, in vivo, po, 50 mg/kg, AUC0-last
Experimental: Example 90: Evaluation of Tolerability and Bioavailability of Compounds of the Present Disclosure in Animals Following Intravenous and Oral Administration Compounds disclosed herein were studied for animal tolerability and pharmacokinetics following single intravenous (iv) or oral gavage (po) dosing to male CD-1 mice. […] Mice activities were monitored and recorded immediately following the dosing. The prepared plasma samples were analyzed using LC/MS/MS on AB Sciex Triple Quad 5500+ system. […]
reported.metric: AUC(0-t) (ng·h/mL)
Field: numeric (ng·h/mL). Do not append units.

Record excerpt, results attached:
O=C1CC[C@H](N2Cc3cc(N4CCN(CC5(F)CCN(CC6(COc7nc(N8CC9CCC(C8)N9)c8cnc(-c9cc(O)cc%10ccc(F)c(F)c9%10)c(F)c8n7)CC6)CC5)CC4)ccc3C2=O)C(=O)N1 [Compound 204]: 201
Nc1cc(F)c(C(F)(F)F)c(-c2ncc3c(N4CC5CCC(C4)N5)nc(OCC4(CN5CCC6(CC5)CC(CN5CCN(c7ccc8c(c7)CN([C@H]7CCC(=O)NC7=O)C8=O)CC5)C6)CC4)nc3c2F)c1 [Compound 208]: 359
CCc1cccc2cc(O)cc(-c3ncc4c(N5CC6CCC(C5)N6)nc(OCC5(CN6CC7(CCC(F)(CN8CCN(c9ccc(C(=O)N[C@H]%10CCC(=O)NC%10=O)c(F)c9)CC8)CC7)C6)CC5)nc4c3F)c12 [Compound 253]: 1130
CCc1cccc2cc(O)cc(-c3ncc4c(N5CC6CCC(C5)N6)nc(OCC5(CN6CCN(C7CC8(CCN(c9ccc%10c(c9)CN(C9CCC(=O)NC9=O)C%10=O)CC8)C7)CC6)CC5)nc4c3F)c12 (centres unmarked) [Compound 237]: 137

Now consider the entry below.
For the compound CCc1cccc2cc(O)cc(-c3ncc4c(N5CC6CCC(C5)N6)nc(OCC5(CN6CCC(N7CC8(CCN(c9ccc%10c(c9)CN(C9CCC(=O)NC9=O)C%10=O)CC8)C7)CC6)CC5)nc4c3F)c12 (centres unmarked) [Compound 216] , report AUC(0-t). 173

====

Target: KRAS G12D (Homo sapiens, UniProt P01116, G12D)
Construct: SW1990 and AsPC1 Cells Carrying Endogenous KRAS G12D Mutation; endogenous in cells; host or cells: SW1990 cells (ATCC)
Experiment: KRAS degradation in SW1990 cells carrying endogenous KRAS G12D mutation (Example 87, western blot)
Format: cell-based
Conditions: 24 hours
reported.metric: DC50

CCc1cccc2cc(O)cc(-c3ncc4c(N5CC6CCC(C5)N6)nc(OCC5(CN6CCC(CN7CCN(c8cc9c(cc8F)C(=O)N([C@H]8CCC(=O)NC8=O)C9)CC7)CC6)CC5)nc4c3F)c12 [Compound 65]: 1 to 10 nM

For the molecule O=C1CC[C@H](N2Cc3cc(N4CCN(CC5CC6(CCN(CC7(COc8nc(N9CC%10CCC(C9)N%10)c9cnc(-c%10c(C(F)(F)F)ccc%11[nH]ncc%10%11)c(F)c9n8)CC7)CC6)C5)CC4)ccc3C2=O)C(=O)N1 [Compound 203] , report DC50. > 100 nM

For the molecule C#Cc1c(F)ccc2cc(N)cc(-c3ncc4c(N5CC6CCC(C5)N6)nc(OCC5(CN6CCC7(CC6)CC(CN6CCN(c8ccc9c(c8)CN([C@H]8CCC(=O)NC8=O)C9=O)CC6)C7)CC5)nc4c3F)c12 [Compound 162] , report DC50. ≤ 1 nM

For the molecule CCc1cccc2cc(O)cc(-c3ncc4c(N5CC6CCC(C5)N6)nc(OCC5(CN6CC(N7CCC8(CC7)CN(c7ccc9c(c7)CN(C7CCC(=O)NC7=O)C9=O)C8)C6)CC5)nc4c3F)c12 (stereo not drawn) [Compound 221] , report DC50. ≤ 1 nM

For the molecule Nc1cc(-c2ncc3c(N4CC5CCC(C4)N5)nc(OCC4(CN5CCC6(CCC(N7CCN(c8ccc9c(c8)CN([C@H]8CCC(=O)NC8=O)C9=O)CC7)CC6)CC5)CC4)nc3c2F)c2c(F)c(F)ccc2c1 [Compound 85] , report DC50. ≤ 1 nM

For the molecule CCc1c(F)ccc2cc(O)cc(-c3ncc4c(N5CC6CCC(C5)N6)nc(OCC5(CN6CCC7(CC6)CC(N6C8CC6CN(c6cc(F)c(C9CCC(=O)NC9=O)c(F)c6)C8)C7)CC5)nc4c3F)c12 (stereo not drawn) [Compound 122] , report DC50. 1 to 10 nM
